targetSystem: α5β3γ2 GABAA receptor (Homo sapiens, UniProt P18507+P31644)
Construct: expressed in transfected cells
Sequence (P31644 32-462): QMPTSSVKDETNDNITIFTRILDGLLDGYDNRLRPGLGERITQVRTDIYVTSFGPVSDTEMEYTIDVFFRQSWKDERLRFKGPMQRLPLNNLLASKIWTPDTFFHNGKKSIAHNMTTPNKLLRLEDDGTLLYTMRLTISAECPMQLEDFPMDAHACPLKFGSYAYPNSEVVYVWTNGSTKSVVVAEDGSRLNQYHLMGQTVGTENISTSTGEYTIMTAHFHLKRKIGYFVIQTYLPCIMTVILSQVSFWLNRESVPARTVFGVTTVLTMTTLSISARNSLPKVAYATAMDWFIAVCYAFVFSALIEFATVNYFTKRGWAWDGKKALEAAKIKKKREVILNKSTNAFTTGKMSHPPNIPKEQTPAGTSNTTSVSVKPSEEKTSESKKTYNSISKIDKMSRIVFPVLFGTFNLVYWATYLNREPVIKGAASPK
Sequence (P28472 26-473 partner): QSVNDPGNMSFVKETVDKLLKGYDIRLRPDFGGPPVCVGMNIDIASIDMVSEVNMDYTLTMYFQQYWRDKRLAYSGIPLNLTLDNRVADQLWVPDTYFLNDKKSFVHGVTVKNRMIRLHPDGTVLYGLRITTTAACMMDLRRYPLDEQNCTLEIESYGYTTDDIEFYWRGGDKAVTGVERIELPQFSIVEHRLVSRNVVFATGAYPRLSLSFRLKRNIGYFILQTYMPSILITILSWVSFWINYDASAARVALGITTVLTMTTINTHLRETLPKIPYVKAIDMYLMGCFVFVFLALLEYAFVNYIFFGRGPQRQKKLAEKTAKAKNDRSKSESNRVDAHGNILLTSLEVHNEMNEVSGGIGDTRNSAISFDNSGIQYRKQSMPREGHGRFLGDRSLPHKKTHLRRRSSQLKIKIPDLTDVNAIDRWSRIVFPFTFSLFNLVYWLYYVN
Sequence (P18507 40-475): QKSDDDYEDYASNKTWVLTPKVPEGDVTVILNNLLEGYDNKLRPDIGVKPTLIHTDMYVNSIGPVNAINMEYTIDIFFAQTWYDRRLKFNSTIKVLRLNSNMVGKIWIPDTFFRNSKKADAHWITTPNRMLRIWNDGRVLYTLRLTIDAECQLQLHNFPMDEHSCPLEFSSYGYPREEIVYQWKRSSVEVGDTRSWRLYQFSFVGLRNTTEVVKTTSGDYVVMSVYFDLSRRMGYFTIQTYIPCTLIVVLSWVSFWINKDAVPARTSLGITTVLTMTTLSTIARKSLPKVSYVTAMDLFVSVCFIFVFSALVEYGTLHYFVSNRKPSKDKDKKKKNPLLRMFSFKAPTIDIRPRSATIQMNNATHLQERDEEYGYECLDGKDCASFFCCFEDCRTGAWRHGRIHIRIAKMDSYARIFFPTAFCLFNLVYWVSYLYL
protocolDetails: Binding affinity at recombinant GABAA receptors (Ltk cells stably transfected)
measureName: Ki (nM)
Numbers only, in nM.

*Q* Could you share which Ki value was measured for CC(C)(C)OC(=O)c1cc2c(cn1)[nH]c1ccccc12 [βCCt, β-carboline-3-carboxylate t-butyl ester] ?
*A* 111

* * *

targetSystem: α3β3γ2 GABAA receptor (Homo sapiens, UniProt P18507+P34903)
Construct: expressed in transfected cells
Sequence (P34903 29-492): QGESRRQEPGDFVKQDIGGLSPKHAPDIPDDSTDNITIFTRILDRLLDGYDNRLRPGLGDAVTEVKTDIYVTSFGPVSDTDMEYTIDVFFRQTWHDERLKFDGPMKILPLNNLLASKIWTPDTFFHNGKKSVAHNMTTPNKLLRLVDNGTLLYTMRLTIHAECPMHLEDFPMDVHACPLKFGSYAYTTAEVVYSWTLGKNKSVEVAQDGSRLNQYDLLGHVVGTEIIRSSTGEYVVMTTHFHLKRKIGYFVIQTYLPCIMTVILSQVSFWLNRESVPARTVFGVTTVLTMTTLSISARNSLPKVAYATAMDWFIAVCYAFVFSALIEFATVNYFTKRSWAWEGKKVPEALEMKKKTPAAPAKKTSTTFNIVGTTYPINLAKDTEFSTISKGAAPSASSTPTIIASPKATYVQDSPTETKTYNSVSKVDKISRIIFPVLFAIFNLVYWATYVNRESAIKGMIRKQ
Sequence (P28472 26-473 partner): as the sequence (P28472 26-473 partner) above
Sequence (P18507 40-475): as the sequence (P18507 40-475) above
protocolDetails: Binding affinity at recombinant GABAA receptors (Ltk cells stably transfected)
measureName: Ki
State the value with its unit after it.

*Q* Any idea what its Ki is? The molecule is CC(C)(C)OC(=O)c1cc2c(cn1)[nH]c1ccccc12 [βCCt, β-carboline-3-carboxylate t-butyl ester]
*A* 18.9 nM

Sourced from patent US20030176456A1
